The reported measurements were obtained from patent US20240059655A1.

# Test details: In vivo PK in rats
# Condition context: male, Sprague-Dawley, plasma; rat, PO 20 mg/kg

Molecule | Cmax
O=C(NCCO)c1cccc2c1CCN2c1cc(Cc2cc(F)cc(C(F)(F)F)c2)ncn1 [Compound 12c] | 3410 ng/mL

* * *

# Test details: Brain permeability in rats
# Type: in vivo
# Condition context: male, Sprague-Dawley, brain/plasma; rat, IV 10 mg/kg, 0.25 h; read-out: Brain/Plasma Ratio

Molecule | Kp at […]
O=C(NCCO)c1cccc2c1CCN2c1cc(Cc2cc(F)cc(C(F)(F)F)c2)ncn1 [Compound 12c] | 0.28

* * *

# Test details: In vivo PK in rats
# Condition context: male, Sprague-Dawley, plasma; rat, PO 20 mg/kg; mean ± SEM

Molecule | AUC(0-inf) (ng·h/mL)
O=C(NCCO)c1cccc2c1CCN2c1cc(Cc2cc(F)cc(C(F)(F)F)c2)ncn1 [Compound 12c] | 13700
